System: RARa:RXR (NR concentration 270 nM, RXRa partner concentration 90 nM)
testDescription: PBM binding z-score (relative to random genomic background probes); higher = stronger binding; sequences stand for … in GC…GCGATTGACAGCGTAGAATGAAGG
Think of 2 as a floor: if PBM binding z-score stands on it or above, it is True; beneath it, False.

Before answering, review these 4 worked examples.
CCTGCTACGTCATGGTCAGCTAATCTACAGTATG	False
TCTTGTAGATGAAGCAGGTTAAGAAAGCCTGAGT	False
CGAACTAGGTCAAGGAAAGTGAATCTCCGCACGC	False
CCTGCTAGGTTAATGGTCAGCTAAAGCAGCTCGC	False

Incoming: Identify whether the reported PBM binding z-score of the following sequence is 2 or greater: "AGAATGAGGTTATTAAGATCTGGGAATTGCGGTC"
Outgoing: False

Incoming: Could you please find out whether "CCGGCTGGGGCAAAGGTTACCATACTCAGTACGA" has PBM binding z-score that meets 2 or exceeds it?
Outgoing: True

Incoming: Check if PBM binding z-score >= 2 (inclusive). Item: "TCTTCTAGGTCAACGATGGTCAGCTAATCTGCTA"
Outgoing: True

Incoming: API: above_or_equal(metric=PBM binding z-score, cutoff=2) for item "CCTACTGGGACACGAAAGGTCATTGATTCAGTGA"
Outgoing: True

Incoming: Say whether "CTCGAAAGGCCGGTTGAGGTGAGTATACGGATAA" shows PBM binding z-score of 2 or more.
Outgoing: False

Incoming: Record "GATACAGGGTCAGCTAGAGGCCAGAGAATGGAAA" ; criterion: PBM binding z-score no lower than 2. Met?
Outgoing: True

Incoming: Could you please find out whether "ATCTATAGGTAAAGTTCAGTGAAAGATCGATAGA" has PBM binding z-score that meets 2 or exceeds it?
Outgoing: False
